# EXPERIMENT_NOTES: TOX21_p53_BLA_p4_viability: Viability Assessment in the Tox21 HCT-116 p53 Agonism Beta-lactamase Assay, Phase 4 (AID 2283597);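 note: hits lower the luminescence signal meaning cytotoxicity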
Results filed as inconclusive are left out. Calls of active or inactive are those of the source. Rule for the calls: active = hit-call score of the fitted dose curve at least 0.9, where 1 is the maximum; inconclusive = response in the unintended direction; inactive = score below 0.9.
Bench note: report the call from yes (active), no (inactive)

Past entries and their recorded results:
chemical_string=CO[C@H]1C[C@H](O[C@H]2[C@H](C)O[C@@H](O[C@@H]3/C(C)=C/C[C@@H]4C[C@@H](C[C@]5(C=C[C@H](C)[C@@H](C6CCCCC6)O5)O4)OC(=O)[C@@H]4C=C(C)[C@@H](O)[C@H]5OC/C(=C\C=C\[C@@H]3C)[C@]54O)C[C@@H]2OC)O[C@@H](C)[C@@H]1O assigned_category=yes
chemical_string=C[C@H]1[C@@H](OC(=O)CCC(=O)O)O[C@@H]2OC3(C)CC[C@H]4[C@H](C)CC[C@@H]1[C@@]24OO3 assigned_category=no
chemical_string=COc1c(C)c2c(c(O)c1C/C=C(\C)CCC(=O)OCCN1CCOCC1)C(=O)OC2 assigned_category=yes
chemical_string=NCCCC[C@H](N[C@@H](CCc1ccccc1)C(=O)O)C(=O)N1CCC[C@H]1C(=O)O assigned_category=no

Now for a further compound.
Could you please tell me the result logged for Cc1nc2n(c(=O)c1CCN1CCC(c3noc4cc(F)ccc34)CC1)CCC[C@H]2O in this assay? no
